Data provenance: paper PMC3956377

Molecular target: complex IV (cytochrome c oxidase) (Plasmodium falciparum, UniProt A0A5K1K9G8)
Construct: gene PF3D7_MIT02100; native complex in cell-free extract of saponin-freed parasites; cytochrome c oxidase activity; with Cytochrome c oxidase subunit 3
Sequence (A0A5K1K9G8 1-508): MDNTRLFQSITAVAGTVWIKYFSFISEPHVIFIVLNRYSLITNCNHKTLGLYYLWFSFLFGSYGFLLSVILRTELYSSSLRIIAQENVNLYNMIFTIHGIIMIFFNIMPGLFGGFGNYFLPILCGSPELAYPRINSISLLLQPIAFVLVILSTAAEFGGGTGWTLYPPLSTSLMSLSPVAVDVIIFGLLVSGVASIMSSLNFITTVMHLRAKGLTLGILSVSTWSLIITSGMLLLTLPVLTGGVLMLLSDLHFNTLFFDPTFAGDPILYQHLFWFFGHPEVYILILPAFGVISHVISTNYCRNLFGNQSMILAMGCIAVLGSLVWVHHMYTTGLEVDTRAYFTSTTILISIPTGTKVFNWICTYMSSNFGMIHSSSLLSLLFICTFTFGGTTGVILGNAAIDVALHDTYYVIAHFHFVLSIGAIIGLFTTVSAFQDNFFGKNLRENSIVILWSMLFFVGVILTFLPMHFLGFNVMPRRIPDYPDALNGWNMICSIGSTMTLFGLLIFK
Sequence (Q7HP05 1-279 partner): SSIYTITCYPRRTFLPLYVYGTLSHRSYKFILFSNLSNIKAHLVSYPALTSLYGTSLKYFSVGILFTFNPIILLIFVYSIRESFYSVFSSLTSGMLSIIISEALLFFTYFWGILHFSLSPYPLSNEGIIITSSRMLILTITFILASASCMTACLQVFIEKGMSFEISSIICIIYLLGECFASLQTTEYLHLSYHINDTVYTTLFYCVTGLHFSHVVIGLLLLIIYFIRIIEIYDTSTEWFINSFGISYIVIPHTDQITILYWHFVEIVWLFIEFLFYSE
Experiment: spectrophotometric cytochrome c oxidation
Assay type: biochemical
Settings: read-out: Percentage inhibition / complex IV
Measure: inhibition at 1 µM
Answer with the figure and its unit, nothing else.

Req: Could you tell me which inhibition at 1 µM is on file for CN1CCN(C2CCN(C(=O)CC3CCC4(CC3)OOC3(OO4)C4CC5CC(C4)CC3C5)CC2)CC1 (centres unmarked) ?
Resp: 19.1%

Req: Could you tell me which inhibition at 1 µM is on file for C[C@@H]1CC[C@H]2[C@@H](C)C(O)O[C@@H]3O[C@@]4(C)CC[C@@H]1[C@]32OO4 (some centres unmarked) [Dihydroartemisinin] ?
Resp: 21.1%

Req: Could you tell me which inhibition at 1 µM is on file for C[C@@H]1CC[C@H]2[C@@H](C)C(=O)O[C@@H]3O[C@@]4(C)CC[C@@H]1[C@]32OO4 [Artemisinin] ?
Resp: 18.4%

Req: Could you tell me which inhibition at 1 µM is on file for C[C@H]1[C@H](OC(=O)CCC(=O)O)O[C@@H]2O[C@@]3(C)CC[C@H]4[C@H](C)CC[C@@H]1[C@@]24OO3 [Artesunate] ?
Resp: 21.1%

Req: Could you tell me which inhibition at 1 µM is on file for CO[C@H]1O[C@@H]2O[C@@]3(C)CC[C@H]4[C@H](C)CC[C@@H]([C@H]1C)[C@@]24OO3 [Artemether] ?
Resp: 23%

---

Target: bc1 (complex III) (Plasmodium falciparum, UniProt Q7HP03+Q8IL75)
Construct: gene PF3D7_MIT02300; native complex in cell-free extract of saponin-freed parasites; decylubiquinol:cytochrome c oxidoreductase activity; with Cytochrome c1, heme protein, mitochondrial
Sequence (Q7HP03 1-376): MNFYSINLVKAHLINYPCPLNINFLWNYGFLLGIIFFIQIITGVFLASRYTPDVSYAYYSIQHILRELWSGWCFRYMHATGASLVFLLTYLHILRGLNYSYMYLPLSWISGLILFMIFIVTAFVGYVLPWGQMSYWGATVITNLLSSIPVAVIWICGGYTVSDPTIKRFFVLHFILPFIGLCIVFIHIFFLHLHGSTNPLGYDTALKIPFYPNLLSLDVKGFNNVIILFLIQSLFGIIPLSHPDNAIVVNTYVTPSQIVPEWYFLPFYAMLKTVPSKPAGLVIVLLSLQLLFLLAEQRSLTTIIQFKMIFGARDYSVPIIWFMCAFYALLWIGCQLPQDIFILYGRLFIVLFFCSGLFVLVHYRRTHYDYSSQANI
Sequence (Q8IL75 31-355): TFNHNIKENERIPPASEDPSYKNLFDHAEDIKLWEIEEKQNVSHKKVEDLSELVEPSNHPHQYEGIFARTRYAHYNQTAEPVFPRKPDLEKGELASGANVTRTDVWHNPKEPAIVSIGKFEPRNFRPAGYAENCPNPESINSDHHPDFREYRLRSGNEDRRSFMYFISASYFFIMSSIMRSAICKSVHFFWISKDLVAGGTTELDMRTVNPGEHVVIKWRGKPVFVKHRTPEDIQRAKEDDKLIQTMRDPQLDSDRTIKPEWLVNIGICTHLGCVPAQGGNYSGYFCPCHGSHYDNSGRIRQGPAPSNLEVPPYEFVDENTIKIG
Sequence (Q8I6U9 1-394 partner): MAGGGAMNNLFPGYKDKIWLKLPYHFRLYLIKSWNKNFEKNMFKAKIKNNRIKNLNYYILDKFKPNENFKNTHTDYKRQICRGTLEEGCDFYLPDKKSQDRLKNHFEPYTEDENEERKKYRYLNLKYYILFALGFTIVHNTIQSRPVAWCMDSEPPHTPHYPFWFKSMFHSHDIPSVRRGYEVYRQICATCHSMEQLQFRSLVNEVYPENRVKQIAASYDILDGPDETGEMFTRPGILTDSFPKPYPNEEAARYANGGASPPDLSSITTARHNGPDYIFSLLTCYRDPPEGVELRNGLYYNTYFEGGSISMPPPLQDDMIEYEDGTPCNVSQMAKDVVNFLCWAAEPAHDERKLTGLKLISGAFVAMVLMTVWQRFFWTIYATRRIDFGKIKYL
Experiment: spectrophotometric cytochrome c reduction ([…]-542 nm)
Type: biochemical
Conditions: read-out: Percentage inhibition / bc1 (complex III)
Label Fulfilled when inhibition at 1 µM is at or above 7%; otherwise label Not fulfilled.

Req: Say whether `CO[C@H]1O[C@@H]2O[C@@]3(C)CC[C@H]4[C@H](C)CC[C@@H]([C@H]1C)[C@@]24OO3` shows inhibition at 1 µM of 7% or more.
Resp: Not fulfilled

Req: Say whether C[C@@H]1CC[C@H]2[C@@H](C)C(O)O[C@@H]3O[C@@]4(C)CC[C@@H]1[C@]32OO4 (some centres unmarked) [Dihydroartemisinin] shows inhibition at 1 µM of 7% or more.
Resp: Not fulfilled

Req: Say whether `C[C@@H]1CC[C@H]2[C@@H](C)C(=O)O[C@@H]3O[C@@]4(C)CC[C@@H]1[C@]32OO4` shows inhibition at 1 µM of 7% or more.
Resp: Not fulfilled

Req: Say whether CN1CCN(C2CCN(C(=O)CC3CCC4(CC3)OOC3(OO4)C4CC5CC(C4)CC3C5)CC2)CC1 (centres unmarked) shows inhibition at 1 µM of 7% or more.
Resp: Fulfilled

Req: Say whether C[C@H]1[C@H](OC(=O)CCC(=O)O)O[C@@H]2O[C@@]3(C)CC[C@H]4[C@H](C)CC[C@@H]1[C@@]24OO3 [Artesunate] shows inhibition at 1 µM of 7% or more.
Resp: Not fulfilled
